assay_system: C-CBL (residues 46-435) (Homo sapiens)
Construct: Purified CBL-B (residues 36-427) and C-CBL (residues 46-435) proteins from baculovirus-infected insect cells; made in house; host or cells: baculovirus-infected insect cells
assay_explanation: Ligand Displacement Assay (LDA), HTRF competitive binding against BODIPY-labeled fluorescent tracer, C-CBL
protocol_conditions: geometric mean of the number of tests, read-out: C-CBL Ki (nM) GMean
// NB: equality with 50 nM counts as False; only Ki strictly below is True

compound | assay_system | category
CC(N)c1nc(C(F)(F)F)cc2c(-c3cccc(C4(Cc5nncn5C)COC4)c3)n[nH]c12 (single isomer, unassigned) [Example K16] | C-CBL (residues 46-435) (Homo sapiens) | False

-- ask Strictly below 50 nM: is that where Ki of Cn1cnnc1[C@@H](c1cccc(-c2n[nH]c3c(CN[C@H]4CCC[C@@H]4O)nc(C(F)(F)F)cc23)c1)C1CCC1 [Example C4] sits?
-- reply True

-- ask Strictly below 50 nM: is that where Ki of C[C@H](c1nc(C(F)(F)F)cc2c(-c3cccc([C@H](c4nncn4C)C4CCC4)c3)n[nH]c12)N1CC[C@@H](O)C1 (single isomer, unassigned) [Example D69] sits?
-- reply False

-- ask Strictly below 50 nM: is that where Ki of CC(NC(=O)[C@@H](C)O)c1nc(C(F)(F)F)cc2c(-c3cccc([C@H](c4nncn4C)C4CCC4)c3)n[nH]c12 (single isomer, unassigned) [Example I6] sits?
-- reply False

-- ask Strictly below 50 nM: is that where Ki of CCNC(C)c1nc(C(F)(F)F)cc2c(-c3cccc([C@H](c4nncn4C)C4CCC4)c3)n[nH]c12 (single isomer, unassigned) [Example C90] sits?
-- reply False

###

# EC50 listing for each entry below
assay_system: C-CBL (Homo sapiens)
Construct: endogenous in cells; host or cells: Jurkat HiBit-IL2 reporter cells, CBL-B knocked out by CRISPR
assay_explanation: Jurkat HiBit-IL2 assay (CBL-B KO), reporter cell line expressing C-CBL only
Type: cell-based
protocol_conditions: CBL-B KO (C-CBL only), anti-CD3/anti-CD28 stimulation 4 hours, geometric mean, Table 16a, read-out: CBL-B KO EC50 (nM) GMean
A number alone suffices; assume nM.

These recorded examples may help you get a feel for the data.
compound | experimental_result
C[C@H](c1nc(C(F)(F)F)cc2c(-c3cccc(C4(Cc5nncn5C)COC4)c3)n[nH]c12)N1C[C@H](F)[C@@H](F)C1 (single isomer, unassigned) | 1210
CC(C)NC(C)c1nc(C(F)(F)F)cc2c(-c3cccc([C@H](c4nncn4C)C4CCC4)c3)n[nH]c12 (single isomer, unassigned) [Example C34] | 892

Looking up C[C@H]1CN([C@@H](C)c2nc(C(F)(F)F)cc3c(-c4cccc(C5(Cc6nncn6C)COC5)c4)n[nH]c23)CCO1 (single isomer, unassigned) , I found its EC50 recorded as 512

###

assay_system: CBL-B (residues 36-427) (Homo sapiens, UniProt Q13191)
Construct: Purified CBL-B (residues 36-427) and C-CBL (residues 46-435) proteins from baculovirus-infected insect cells; made in house; host or cells: baculovirus-infected insect cells
assay_explanation: Ligand Displacement Assay (LDA), HTRF competitive binding against BODIPY-labeled fluorescent tracer, CBL-B
protocol_conditions: geometric mean of the number of tests, read-out: CBL-B Ki (nM) GMean
Ranges used to classify Ki: label 0 (below 8 nM), label 1 (8 nM to below 30 nM), label 2 (30 nM or more)

Check out these entries, answers already filled in.
molecule | assay_system | category
CC(C)NCc1nc(C(F)(F)F)cc2c(-c3cccc([C@H](c4nncn4C)C4CCC4)c3)n[nH]c12 | CBL-B (residues 36-427) (Homo sapiens, UniProt Q13191) | label 1
CC(NC1CCC1)c1nc(C2CC2)cc2c(-c3cccc(C4(Cc5nncn5C)COC4)c3)n[nH]c12 (single isomer, unassigned) [Example H4] | CBL-B (residues 36-427) (Homo sapiens, UniProt Q13191) | label 0
C[C@H]1CN(Cc2nc(C(F)(F)F)cc3c(-c4cccc([C@H](c5nncn5C)C5CCC5)c4)n[nH]c23)CCO1 | CBL-B (residues 36-427) (Homo sapiens, UniProt Q13191) | label 1
Cn1cnnc1[C@@H](c1cccc(-c2n[nH]c3c(CN4CC[C@@H](F)C4)nc(C(F)(F)F)cc23)c1)C1CCC1 | CBL-B (residues 36-427) (Homo sapiens, UniProt Q13191) | label 2
C[C@H](c1nc(C(F)(F)F)cc2c(-c3cccc(C4(Cc5nncn5C)COC4)c3)n[nH]c12)N1C[C@@H](F)[C@H](F)C1 (single isomer, unassigned) | CBL-B (residues 36-427) (Homo sapiens, UniProt Q13191) | label 2

-- ask Bin this entry: CC(c1nc(C(F)(F)F)cc2c(-c3cccc(C4(Cc5nncn5C)COC4)c3)n[nH]c12)N1CCC[C@H](C)C1 (single isomer, unassigned) [Example C20]
-- reply label 0

-- ask Bin this entry: "C[C@@H]1CN(Cc2nc(C(F)(F)F)cc3c(-c4cccc([C@H](c5nncn5C)C5CCC5)c4)n[nH]c23)CCO1"
-- reply label 1

###

assay_system: C-CBL (residues 46-435) (Homo sapiens, UniProt P22681)
Construct: Purified CBL-B (residues 36-427) and C-CBL (residues 46-435) proteins from baculovirus-infected insect cells; made in house; host or cells: baculovirus-infected insect cells
assay_explanation: Ligand Displacement Assay (LDA), HTRF competitive binding against BODIPY-labeled fluorescent tracer, C-CBL
protocol_conditions: geometric mean of the number of tests, read-out: C-CBL Ki (nM) GMean
# Ki listing for each entry below
Give the value; after it, write the unit.

molecule | Ki
C[C@@H](N[C@H]1COC[C@@H]1O)c1nc(C(F)(F)F)cc2c(-c3cccc([C@H](c4nncn4C)C4CCC4)c3)n[nH]c12 (single isomer, unassigned) | 39.8 nM
C[C@H](NC1CCCC1)c1nc(C(F)(F)F)cc2c(-c3cccc([C@H](c4nncn4C)C4CCC4)c3)n[nH]c12 (single isomer, unassigned) | 108 nM
CN1CCC[C@@H]1COc1nc(C(F)(F)F)cc2c(-c3cccc(C4(Cc5nncn5C)COC4)c3)n[nH]c12 | 196 nM
Cn1cnnc1[C@@H](c1cccc(-c2n[nH]c3cnc(C(F)(F)F)cc23)c1)C1CCC1 | 681 nM
CN(C)c1nc(C(F)(F)F)cc2c(-c3cccc(C4(Cc5nncn5C)COC4)c3)n[nH]c12 | 228 nM

Next up:
Looking up CC(=O)NC(C)c1nc(C(F)(F)F)cc2c(-c3cccc(C4(Cc5nncn5C)COC4)c3)n[nH]c12 (single isomer, unassigned) [Example M1] , I found its Ki recorded as 79.4 nM

###

# Ki listing for each entry below
assay_system: CBL-B (residues 36-427) (Homo sapiens, UniProt Q13191)
Construct: Purified CBL-B (residues 36-427) and C-CBL (residues 46-435) proteins from baculovirus-infected insect cells; made in house; host or cells: baculovirus-infected insect cells
assay_explanation: Ligand Displacement Assay (LDA), HTRF competitive binding against BODIPY-labeled fluorescent tracer, CBL-B
protocol_conditions: geometric mean of the number of tests, read-out: CBL-B Ki (nM) GMean
A number alone suffices; assume nM.

compound | assay_system | Ki / nM
CN1CCC(Oc2nc(C(F)(F)F)cc3c(-c4cccc(C5(Cc6nncn6C)COC5)c4)n[nH]c23)C1 (stereo in doubt) | CBL-B (residues 36-427) (Homo sapiens, UniProt Q13191) | 19.1

Query CC(NCC(C)(C)O)c1nc(C(F)(F)F)cc2c(-c3cccc([C@H](c4nncn4C)C4CCC4)c3)n[nH]c12 (single isomer, unassigned) [Example C117] on CBL-B (residues 36-427) (Homo sapiens, UniProt Q13191); Ki returned: 7.9

Query "Cn1cnnc1[C@@H](c1cccc(-c2n[nH]c3c(CN[C@H]4C[C@H](O)C4)nc(C(F)(F)F)cc23)c1)C1CCC1" on CBL-B (residues 36-427) (Homo sapiens, UniProt Q13191); Ki returned: 28.7

###

# Ki listing for each entry below
assay_system: CBL-B (residues 36-427) (Homo sapiens)
Construct: Purified CBL-B (residues 36-427) and C-CBL (residues 46-435) proteins from baculovirus-infected insect cells; made in house; host or cells: baculovirus-infected insect cells
assay_explanation: Ligand Displacement Assay (LDA), HTRF competitive binding against BODIPY-labeled fluorescent tracer, CBL-B
protocol_conditions: geometric mean of the number of tests, read-out: CBL-B Ki (nM) GMean
A number alone suffices; assume nM.

molecule | unit_abbreviation | Ki
Cn1cnnc1CC1(c2cccc(-c3n[nH]c4c(CN[C@H]5CCOC5)nc(C(F)(F)F)cc34)c2)COC1 | nM | 24.7

Query C[C@@H](c1nc(C(F)(F)F)cc2c(-c3cccc(C4(Cc5nncn5C)COC4)c3)n[nH]c12)N1CC[C@H](F)C1 (single isomer, unassigned) [Example D98] on CBL-B (residues 36-427) (Homo sapiens); Ki returned: 25.5
